Attribution: PubChem BioAssay (NCATS)

molecular target: Peroxisome proliferator-activated receptor alpha (Homo sapiens); assay: qHTS assay for small molecule agonists of the peroxisome proliferator-activated receptor alpha (PPARalpha) signaling pathway (AID 651778); conditions: PathHunter PPARalpha complementation, chemiluminescence, 6 h; hits give high values; note: % of control where 0% means no effect
The following compounds are listed with their measured max response values.
Entry rule: numbers only, all in %.

Dear colleague, please send me the reported max response for C[C@]1(O)CC[C@H]2[C@@H]3CCC4=CC(=O)CC[C@]4(C)[C@@]3(F)[C@@H](O)C[C@@]21C when you can.
3

Answer with the recorded max response for the compound listed here: O=C1c2ccccc2C(=O)C1C(=O)C(c1ccccc1)c1ccccc1
-1.83

Report measured max response; entry is Nc1ccccc1C(=O)O
0.553

Quote max response reported for COc1cc(OC)c(OC)cc1C=O please.
0.405

Annotate the compound NCCc1ccc(O)cc1 with its measured max response.
-1.42

Indicate the recorded max response value for this compound: [N-]=[N+]=CC(=O)OC[C@H](N)C(=O)O
0.305

Output max response of O=C1c2ccccc2C(=O)c2ccccc21
0.92

Provide only the value of recorded max response for CC(C)c1cccc(C(C)C)c1O
-5.67

Please supply the value of reported max response for the item COP(=S)(OC)SCN1C(=O)c2ccccc2C1=O
-0.635

Return max response for the following compound: Nc1ccccc1
7.46

Give the value of max response reported for the following: CC(C)NC(C)C
0.708

Using the record for Nc1nc(N)nc(NC2CC2)n1 , state its measured max response.
-0.264
